- measured target: Proteinase-activated receptor 2 (Homo sapiens)
- Sequence (P55085 whole entry): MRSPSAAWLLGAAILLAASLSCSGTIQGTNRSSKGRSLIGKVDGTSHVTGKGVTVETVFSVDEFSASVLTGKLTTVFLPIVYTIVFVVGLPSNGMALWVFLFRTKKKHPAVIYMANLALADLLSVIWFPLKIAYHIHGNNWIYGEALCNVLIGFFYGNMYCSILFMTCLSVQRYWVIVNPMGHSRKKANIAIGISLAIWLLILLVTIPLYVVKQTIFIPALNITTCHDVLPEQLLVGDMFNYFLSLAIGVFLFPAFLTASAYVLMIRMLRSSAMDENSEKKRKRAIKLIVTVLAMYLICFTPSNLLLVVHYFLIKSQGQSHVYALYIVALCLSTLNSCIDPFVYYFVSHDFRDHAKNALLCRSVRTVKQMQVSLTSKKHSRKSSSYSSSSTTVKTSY
- method: Agonist activity at PAR2 receptor in human HT-29 cells assessed as induction of intracellular calcium release
- Assay type: functional, cell-based
- measurement parameters: ht-29
observable: EC50
Remember to quote the unit after the number.

Enquiry: Can you look up the measured EC50 of CC[C@H](C)[C@H](NC(=O)[C@H](CC1CCCCC1)NC(=O)c1ccno1)C(=O)N[C@H]1CCC2SC[C@@H](C(=O)N3CCC(CN)CC3)N2C1=O (stereo partly specified) for me?
Return: 6.1 µM

* * *

- measured target: Proteinase-activated receptor 2 (Homo sapiens)
- method: Agonist activity at PAR2 receptor in human HT-29 cells assessed as induction of intracellular calcium release at 1 uM relative to SLIGRLI-NH2
- Assay type: functional, cell-based
observable: Activity (%)
Output spec: scalar in %, unitless text.

Enquiry: Can you look up the measured Activity of CC[C@H](C)[C@H](NC(=O)[C@H](CC1CCCCC1)NC(=O)c1ccno1)C(=O)NCCCCCN for me?
Return: 60

Enquiry: Can you look up the measured Activity of CC[C@H](C)[C@H](NC(=O)[C@H](CC1CCCCC1)NC(=O)c1ccno1)C(=O)NCCCCC(=O)NCc1cccnc1 for me?
Return: 130

Enquiry: Can you look up the measured Activity of CC[C@H](C)[C@H](NC(=O)[C@H](CC1CCCCC1)NC(=O)c1ccno1)C(=O)NCCC(=O)N1CCC(CN)CC1 for me?
Return: 97

Enquiry: Can you look up the measured Activity of CC[C@H](C)[C@H](NC(=O)[C@H](CC1CCCCC1)NC(=O)c1ccno1)C(=O)NCCCCC(=O)Nc1ccc(CCN)cc1 for me?
Return: 142

Enquiry: Can you look up the measured Activity of CC[C@H](C)[C@H](NC(=O)[C@H](CC1CCCCC1)NC(=O)c1ccno1)C(=O)NCCC(=O)Nc1ccc(CCN)cc1 for me?
Return: 130

Enquiry: Can you look up the measured Activity of CC[C@H](C)[C@H](NC(=O)[C@H](CC1CCCCC1)NC(=O)c1ccno1)C(=O)NCCCCC(=O)N1CCC(CN)CC1 for me?
Return: 181

Enquiry: Can you look up the measured Activity of CC[C@H](C)C(NC(=O)[C@H](CC1CCCCC1)NC(=O)c1ccno1)C(=O)NCCC(=O)NCc1cccnc1 (single isomer, unassigned) for me?
Return: 122

Enquiry: Can you look up the measured Activity of CC[C@H](C)[C@H](NC(=O)[C@H](CC1CCCCC1)NC(=O)c1ccno1)C(=O)NCCCN for me?
Return: 57

* * *

The reader will find reported EC50 values listed item by item below.
- measured target: Proteinase-activated receptor 2 (Homo sapiens)
- method: Agonist activity at PAR2 receptor in human HT-29 cells assessed as induction of intracellular calcium release
- Type: functional, cell-based
Output spec: scalar in µM, unitless text.

>  <compound>
CC[C@H](C)[C@H](NC(=O)[C@H](CC1CCCCC1)NC(=O)c1ccno1)C(=O)N1CCCC(C(=O)N2CCC(CN)CC2)C1 (some centres not stated)

>  <measured target>
Proteinase-activated receptor 2 (Homo sapiens)

>  <measurement units>
µM

>  <EC50>
17.1

$$$$
>  <compound>
CC[C@H](C)[C@H](NC(=O)[C@H](CC1CCCCC1)NC(=O)c1ccno1)C(=O)NCc1ccc(C(=O)N2CCC(CN)CC2)cc1

>  <measured target>
Proteinase-activated receptor 2 (Homo sapiens)

>  <measurement units>
µM

>  <EC50>
1.1

$$$$
>  <compound>
CC[C@H](C)[C@H](NC(=O)[C@H](CC1CCCCC1)NC(=O)c1ccno1)C(=O)NC1CCN([C@@H](CC(C)C)C(=O)N2CCC(CN)CC2)C1=O (some centres not stated)

>  <measured target>
Proteinase-activated receptor 2 (Homo sapiens)

>  <measurement units>
µM

>  <EC50>
13.5

$$$$
>  <compound>
CC[C@H](C)[C@H](NC(=O)[C@H](CC1CCCCC1)NC(=O)c1ccno1)C(=O)N1CCC(C(=O)N2CCC(CN)CC2)CC1

>  <measured target>
Proteinase-activated receptor 2 (Homo sapiens)

>  <measurement units>
µM

>  <EC50>
13.7

$$$$
>  <compound>
CC[C@H](C)[C@H](NC(=O)[C@H](CC1CCCCC1)NC(=O)c1ccno1)C(=O)N1CCCCC1C(=O)N1CCC(CN)CC1 (some centres not stated)

>  <measured target>
Proteinase-activated receptor 2 (Homo sapiens)

>  <measurement units>
µM

>  <EC50>
7.1

$$$$

Please find the next compound below.
Enquiry: Can you look up the measured EC50 of CC[C@H](C)[C@H](NC(=O)[C@H](CC1CCCCC1)NC(=O)c1ccno1)C(=O)Nc1cccc(C(=O)N2CCC(CN)CC2)c1 for me?
Return: 2.2
